System under test: C-C chemokine receptor type 2 (Homo sapiens)
Sequence (P41597 whole entry): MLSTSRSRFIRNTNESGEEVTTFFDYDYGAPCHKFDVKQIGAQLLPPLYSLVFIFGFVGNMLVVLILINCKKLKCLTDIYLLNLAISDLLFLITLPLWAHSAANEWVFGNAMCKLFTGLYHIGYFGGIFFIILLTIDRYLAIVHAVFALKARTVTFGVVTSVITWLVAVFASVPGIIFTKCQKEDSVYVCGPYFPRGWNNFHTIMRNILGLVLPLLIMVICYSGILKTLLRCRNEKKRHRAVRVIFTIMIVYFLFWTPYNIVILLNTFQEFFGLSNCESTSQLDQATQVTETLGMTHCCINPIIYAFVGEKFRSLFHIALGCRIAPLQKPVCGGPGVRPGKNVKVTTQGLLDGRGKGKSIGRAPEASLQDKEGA
Protocol details: Displacement of [125I]MCP1 from human CCR2b in THP1 cells
Type: cell-based, THP-1
Endpoint: IC50

The examples below pair each entry with its known result.
In [3]: df
Out[3]:
                      smiles_representation  endpoint  endpoint_result
0  O=C(CNC(=O)c1cccc(C(F)(F)F)c1)N[C@@H]1CCN(Cc2cccc(Cl)c2)C1      IC50           > 5 µM
1  O=C(CNC(=O)c1ccccc1C(F)(F)F)N[C@@H]1CCN(Cc2ccc(Cl)cc2)C1      IC50          > 10 µM
2  O=C(CNC(=O)c1ccccc1)N[C@@H]1CCN(Cc2ccc(Cl)cc2)C1      IC50          > 10 µM
3  Nc1ccccc1C(=O)NCC(=O)N[C@@H]1CCN(Cc2ccc(Cl)cc2)C1      IC50          > 10 µM
4  Cc1ccccc1C(=O)NCC(=O)N[C@@H]1CCN(Cc2ccc(Cl)cc2)C1      IC50          > 10 µM
5  O=C(CNC(=O)c1ccc(Cl)cc1)N[C@@H]1CCN(Cc2ccc(Cl)cc2)C1      IC50           > 5 µM
6  COc1cccc(C(=O)NCC(=O)N[C@@H]2CCN(Cc3ccc(Cl)cc3)C2)c1      IC50          > 10 µM

For `Nc1cccc(C(=O)NCC(=O)N[C@@H]2CCN(Cc3ccc(Cl)cc3)C2)c1` , what is its reported IC50?
> 10 µM
